Ref: paper PMC10716038

Target: T1, KIND2^Y13A (UniProt Q8CIB5 1-680, Y13A)
T1 construct: kindlin-2 (KIND2) with Y13A; In FC-RDA a copy labelled with Alexa 647 was the reporter; also called 647–KIND2^Y13A; source: E. coli Rosetta, purified (IMAC, SEC); not shown: His10, N-terminal, cleaved; SUMO, N-terminal, cleaved
T1 sequence (looked up): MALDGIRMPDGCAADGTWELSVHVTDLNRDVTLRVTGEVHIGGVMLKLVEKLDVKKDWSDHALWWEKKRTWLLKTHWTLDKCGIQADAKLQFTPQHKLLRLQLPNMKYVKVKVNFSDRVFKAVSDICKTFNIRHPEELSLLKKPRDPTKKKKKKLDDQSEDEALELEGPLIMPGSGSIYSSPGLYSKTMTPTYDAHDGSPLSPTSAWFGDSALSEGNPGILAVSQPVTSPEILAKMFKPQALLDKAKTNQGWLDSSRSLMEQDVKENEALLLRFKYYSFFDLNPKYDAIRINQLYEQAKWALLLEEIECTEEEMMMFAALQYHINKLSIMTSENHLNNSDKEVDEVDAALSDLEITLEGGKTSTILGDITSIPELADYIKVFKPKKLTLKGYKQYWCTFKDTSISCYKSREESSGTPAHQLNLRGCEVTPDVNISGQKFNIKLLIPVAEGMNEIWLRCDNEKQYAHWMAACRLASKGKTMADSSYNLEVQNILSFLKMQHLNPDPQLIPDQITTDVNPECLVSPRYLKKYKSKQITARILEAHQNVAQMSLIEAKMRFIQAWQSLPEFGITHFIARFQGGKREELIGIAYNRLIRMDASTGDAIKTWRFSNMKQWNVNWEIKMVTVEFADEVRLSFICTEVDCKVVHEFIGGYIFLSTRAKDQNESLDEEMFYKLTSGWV
Experiment: MST; ATTO 488-labelled β-CT peptide (50–200 nM) held constant, one unlabelled protein titrated; 20 mM Tris pH 7.5, 200 mM NaCl, 1 mM TCEP, 0.05% Tween-20; apparent affinities (near-saturation only)
Conditions: both partners purified
No end group written: not given here.
Readout name: Kd (µM)
Numeric only. Scale: µM

Measured Kd of {ATTO 488}-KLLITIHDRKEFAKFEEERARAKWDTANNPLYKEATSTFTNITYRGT (peptide, UniProt O54890 741-787, looked up, integrin β3 cytoplasmic tail; source: synthetic peptide (MPIB Core Facility)) [ATTO 488-labelled β3-CT (488–β3-CT)] : 9
